- measurement_protocol: Plasma clearance was determined in Sprague-Dawley rats at a dose of 1 mg/kg by iv administration
- Format: ADME, organism-based
- Parameters: dose 1 mg/kg, route intravenous
- test_settings: rat, read-out: Clp
quantity_measured: clearance (mL/min/kg)
Give a bare numeral; the unit mL/min/kg is implied.

Request: What does the record list as clearance for C[C@@]1(C(=O)N[C@@H](Cc2ccc(NC(=O)c3c(Cl)ccnc3Cl)cc2)C(=O)O)CCCN1S(=O)(=O)c1cc(Cl)cc(Cl)c1 ?
Response: 1.9

----------
- measurement_protocol: Plasma clearance was determined in rhesus monkey at a dose of 1 mg/kg by iv administration
- Format: ADME, organism-based
- Parameters: dose 1 mg/kg, route intravenous
- test_settings: cercopithecidae, read-out: Clp
quantity_measured: clearance (mL/min/kg)
Give a bare numeral; the unit mL/min/kg is implied.

Request: What does the record list as clearance for C[C@@]1(C(=O)N[C@@H](Cc2ccc(NC(=O)c3c(Cl)ccnc3Cl)cc2)C(=O)O)CCCN1S(=O)(=O)c1cc(Cl)cc(Cl)c1 ?
Response: 7.5

----------
log10 IC50: recorded values
- measurement_target: Integrin alpha-4/beta-1 (Homo sapiens, UniProt P05556+P13612)
- Sequence (P05556 whole entry): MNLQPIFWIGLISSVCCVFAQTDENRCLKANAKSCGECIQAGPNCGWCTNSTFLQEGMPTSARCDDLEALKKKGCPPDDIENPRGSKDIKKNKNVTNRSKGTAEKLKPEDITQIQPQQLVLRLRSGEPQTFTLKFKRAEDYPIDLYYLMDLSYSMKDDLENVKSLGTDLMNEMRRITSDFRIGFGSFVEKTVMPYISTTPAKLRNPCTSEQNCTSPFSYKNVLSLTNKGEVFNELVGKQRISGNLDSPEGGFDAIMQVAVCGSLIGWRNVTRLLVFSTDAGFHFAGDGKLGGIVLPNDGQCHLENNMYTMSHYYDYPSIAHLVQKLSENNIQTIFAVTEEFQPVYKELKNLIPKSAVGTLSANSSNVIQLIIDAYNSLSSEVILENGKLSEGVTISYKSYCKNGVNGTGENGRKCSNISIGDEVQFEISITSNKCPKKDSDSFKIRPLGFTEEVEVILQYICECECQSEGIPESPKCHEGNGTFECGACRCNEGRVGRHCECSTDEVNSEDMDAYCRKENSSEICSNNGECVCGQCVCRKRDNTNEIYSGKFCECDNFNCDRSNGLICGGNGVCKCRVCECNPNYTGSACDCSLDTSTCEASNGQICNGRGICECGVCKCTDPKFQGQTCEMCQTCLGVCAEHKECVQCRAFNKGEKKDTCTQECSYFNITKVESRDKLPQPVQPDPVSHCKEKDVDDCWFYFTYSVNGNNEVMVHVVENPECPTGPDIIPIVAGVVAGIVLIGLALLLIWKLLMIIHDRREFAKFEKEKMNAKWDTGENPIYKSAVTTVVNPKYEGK
- Sequence (P13612 whole entry): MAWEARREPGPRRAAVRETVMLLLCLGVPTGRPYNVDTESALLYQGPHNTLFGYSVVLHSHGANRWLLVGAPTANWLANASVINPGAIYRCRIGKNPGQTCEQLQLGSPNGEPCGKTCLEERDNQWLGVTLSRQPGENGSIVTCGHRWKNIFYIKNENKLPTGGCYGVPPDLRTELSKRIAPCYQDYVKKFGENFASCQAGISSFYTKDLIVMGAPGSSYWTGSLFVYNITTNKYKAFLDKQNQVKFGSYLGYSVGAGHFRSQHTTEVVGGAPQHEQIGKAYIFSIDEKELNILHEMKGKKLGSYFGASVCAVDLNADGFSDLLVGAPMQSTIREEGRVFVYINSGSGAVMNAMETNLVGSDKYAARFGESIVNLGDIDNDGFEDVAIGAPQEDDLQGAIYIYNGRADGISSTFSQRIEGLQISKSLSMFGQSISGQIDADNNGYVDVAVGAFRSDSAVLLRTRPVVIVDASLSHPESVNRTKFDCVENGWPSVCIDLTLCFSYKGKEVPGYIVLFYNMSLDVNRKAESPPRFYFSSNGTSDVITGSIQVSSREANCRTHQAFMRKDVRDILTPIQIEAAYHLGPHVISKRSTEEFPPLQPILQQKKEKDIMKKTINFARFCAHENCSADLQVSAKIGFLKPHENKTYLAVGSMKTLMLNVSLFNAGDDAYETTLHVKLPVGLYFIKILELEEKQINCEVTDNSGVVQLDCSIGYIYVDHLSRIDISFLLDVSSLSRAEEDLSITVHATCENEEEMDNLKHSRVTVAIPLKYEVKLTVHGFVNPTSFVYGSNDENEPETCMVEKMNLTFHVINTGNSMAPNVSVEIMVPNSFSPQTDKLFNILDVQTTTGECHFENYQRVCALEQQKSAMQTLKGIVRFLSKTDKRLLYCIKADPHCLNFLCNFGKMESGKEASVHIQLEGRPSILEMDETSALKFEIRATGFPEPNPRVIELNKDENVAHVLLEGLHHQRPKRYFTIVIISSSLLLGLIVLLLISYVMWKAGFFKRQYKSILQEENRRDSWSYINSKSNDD
- measurement_protocol: Inhibition of [125I]VCAM-Ig binding to VLA-4 of Jurkat cells in the presence of [Ca2+]
- Format: cell-based
Values are log10 of IC50 in nM.

Consider the worked cases shown below.
compound_structure_string	log10 IC50
CSc1cnccc1C(=O)Nc1ccc(C[C@H](NC(=O)[C@]2(C)CCCN2S(=O)(=O)c2cc(Cl)cc(Cl)c2)C(=O)O)cc1	0.19
C[C@@]1(C(=O)N[C@@H](Cc2ccc(NC(=O)c3c(Cl)cccc3Cl)cc2)C(=O)O)CCCN1S(=O)(=O)c1cc(Cl)cc(Cl)c1	-0.82
C[C@@]1(C(=O)N[C@@H](Cc2ccc(NC(=O)C3=C(Cl)CC(=O)N=C3Cl)cc2)C(=O)O)CCCN1S(=O)(=O)c1cc(Cl)cc(Cl)c1	-1.10
O=C(Nc1ccc(C[C@H](NC(=O)[C@@H]2CCCN2S(=O)(=O)c2ccccc2)C(=O)O)cc1)c1c(Cl)cncc1Cl	-0.89
O=C(Nc1ccc(C[C@H](NC(=O)[C@@H]2CCCN2S(=O)(=O)c2cccc(Cl)c2)C(=O)O)cc1)c1c(Cl)cncc1Cl	-1.00
COc1cc(CN2CCCC2)cc(OC)c1-c1ccc(C[C@H](NC(=O)[C@]2(C)CCCN2S(=O)(=O)c2cc(Cl)cc(Cl)c2)C(=O)O)cc1	-1.05
COc1ccnc(Cl)c1C(=O)Nc1ccc(C[C@H](NC(=O)[C@]2(C)CCCN2S(=O)(=O)c2cc(Cl)cc(Cl)c2)C(=O)O)cc1	-1.10
COc1cccc(OC)c1-c1ccc(C[C@H](NC(=O)[C@]2(C)CCCN2S(=O)(=O)c2cc(Cl)cc(Cl)c2)C(=O)O)cc1	-1.05
O=C(Nc1ccc(C[C@H](NC(=O)[C@@H]2CCCN2S(=O)(=O)c2cc(Cl)cc(Cl)c2)C(=O)O)cc1)c1c(Cl)cncc1Cl	-1.15
C[C@@]1(C(=O)N[C@@H](Cc2ccc(NC(=O)c3cccnc3)cc2)C(=O)O)CCCN1S(=O)(=O)c1cc(Cl)cc(Cl)c1	-0.60

Request: What does the record list as log10 IC50 for C[C@@]1(C(=O)N[C@@H](Cc2ccc(NC(=O)c3cnccc3Cl)cc2)C(=O)O)CCCN1S(=O)(=O)c1cc(Cl)cc(Cl)c1 ?
Response: -0.68

Request: What does the record list as log10 IC50 for C[n+]1ccc(C(=O)Nc2ccc(C[C@H](NC(=O)[C@]3(C)CCCN3S(=O)(=O)c3cc(Cl)cc(Cl)c3)C(=O)O)cc2)c(Cl)c1 ?
Response: -0.51

Request: What does the record list as log10 IC50 for C[n+]1cc(Cl)c(C(=O)Nc2ccc(C[C@H](NC(=O)[C@]3(C)CCCN3S(=O)(=O)c3cc(Cl)cc(Cl)c3)C(=O)O)cc2)c(Cl)c1 ?
Response: -1.00

Request: What does the record list as log10 IC50 for C[C@@]1(C(=O)N[C@@H](Cc2ccc(NC(=O)c3c(Cl)ccnc3Cl)cc2)C(=O)O)CCCN1S(=O)(=O)c1cc(Cl)cc(Cl)c1 ?
Response: -0.96
